Target: T1, HTRA4, P83105
T1 sequence (P83105 378-476, limits assumed, looked up): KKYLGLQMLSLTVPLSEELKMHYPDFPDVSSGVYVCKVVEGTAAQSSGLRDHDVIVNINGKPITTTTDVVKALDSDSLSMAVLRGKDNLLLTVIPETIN
Test: holdup assay
Design: key: below the threshold = too weak to quantify, mostly under pKd 3.1 to 4
Conditions: plain residues with an end cap or a label only (N-terminal biotin on a linker: ado-ado)
MEASUREMENT TYPE: pKd

Worked examples, 8 binders total:
[[record]]
binder = "EPAKETTTNV [SLC2A3, P11169]"
observed_result = "below the threshold"

[[record]]
binder = "TKDKVQETQI [LRRC4, Q9HBW1]"
observed_result = "below the threshold"

[[record]]
binder = "FVFESRKEIL [TBPL1, P62380]"
observed_result = "below the threshold"

[[record]]
binder = "NSTHNLKDYV [CLDN20, P56880]"
observed_result = "below the threshold"

[[record]]
binder = "IKLETKKTKL [SLC15A2, Q16348]"
observed_result = 3.99

[[record]]
binder = "SRPHTNETSL [MCC, P23508]"
observed_result = "below the threshold"

[[record]]
binder = "MQILSKPEFI [NPSR1, Q6W5P4]"
observed_result = 4.38

[[record]]
binder = "GDSSRKEYFI [GYPC, P04921]"
observed_result = "below the threshold"


Required: pKd, one value per binder below.
1. QLGSPTADLA [SIPA1, Q96FS4]
2. PSVYSRSQYV [CLDN8, P56748]

Solution:
1. below the threshold
2. 4.23

Required: pKd, one value per binder below.
1. ADEMICITTL [CACNA1D, Q01668]
2. DYSNLRETDI [ADRA1D, P25100]
3. VYEVPVETKF [SLC26A3, P40879]
4. RSPVATATSC [DUSP5, Q16690]
5. NNMAFETTHF [SLC5A12, Q1EHB4]
6. FLVTEFNVML [DFNB31, Q9P202]

Solution:
1: 4.36; 2: 3.75; 3: below the threshold; 4: below the threshold; 5: below the threshold; 6: below the threshold
